Target: T1, IRF4 DBD wild-type (Homo sapiens, UniProt Q15306 20-132)
T1 sequence: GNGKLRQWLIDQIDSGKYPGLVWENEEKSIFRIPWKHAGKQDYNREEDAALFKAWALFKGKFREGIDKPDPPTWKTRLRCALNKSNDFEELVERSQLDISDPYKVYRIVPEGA
Test: SPR two-state kinetic; FP: PBS + 0.05% Tween20, 5 nM DNA, 1 h, room temperature; SPR: Biacore S200, SA chip, protein 0.1-4500 nM, running buffer not given in material; errors are SD
Conditions: protein: recombinant; tags: N-terminal His8-linker-His8-TEV, cleaved; label: 3' biotin; hairpin, TTTT loop
measured_property: Kd (nM)

[[record]]
binder = "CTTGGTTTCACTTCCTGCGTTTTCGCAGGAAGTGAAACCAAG (structured_DNA) [IRE hairpin (biotin)]"
measured_number = 187


Reference for the values: paper doi:10.1101/2025.03.12.642038
